target: Calmodulin-Dependent Phosphodiesterase (Ca^2+ PDE); assay: Calmodulin-Dependent Phosphodiesterase Inhibition (Ca^2+ PDE); conditions: [^3 H]-cGMP, 30° C.
hey, just use True if measured IC50 is less than 60 µM, otherwise False

Example entries and their recorded answers appear below.
>  <Compound>
O=S(=O)(NC(Cc1ccc(O)cc1)CN1CCC(OCc2ccc(Cl)c(Cl)c2)CC1)c1cccc2cnccc12 (stereo not drawn)

>  <Measured on>
Calmodulin-Dependent Phosphodiesterase (Ca^2+ PDE)

>  <Class name>
True

$$$$
>  <Compound>
O=S(=O)(NCCN(CC=Cc1ccc(Cl)cc1)Cc1ccc(O)cc1)c1cccc2cnccc12

>  <Measured on>
Calmodulin-Dependent Phosphodiesterase (Ca^2+ PDE)

>  <Class name>
False

$$$$
>  <Compound>
COc1ccc(C=CCNCCNS(=O)(=O)c2cccc3cnccc23)cc1

>  <Measured on>
Calmodulin-Dependent Phosphodiesterase (Ca^2+ PDE)

>  <Class name>
True

$$$$
>  <Compound>
CN([C@@H](Cc1ccc(OS(=O)(=O)c2cccc3cnccc23)cc1)C(=O)N1CCN(c2ccccc2)CC1)S(=O)(=O)c1cccc2cnccc12

>  <Measured on>
Calmodulin-Dependent Phosphodiesterase (Ca^2+ PDE)

>  <Class name>
True

$$$$
>  <Compound>
CN(C(Cc1ccc(O)cc1)CN1CCCN(C(=O)OCc2ccccc2)CC1)S(=O)(=O)c1cccc2cnccc12 (stereo not drawn)

>  <Measured on>
Calmodulin-Dependent Phosphodiesterase (Ca^2+ PDE)

>  <Class name>
True

$$$$
>  <Compound>
O=S(=O)(NCCNCC=CC=CC=Cc1ccc(C(F)(F)F)cc1)c1cccc2cnccc12

>  <Measured on>
Calmodulin-Dependent Phosphodiesterase (Ca^2+ PDE)

>  <Class name>
True

$$$$

Given CN(c1ccc(CC(C(=O)N2CCN(c3ccccc3)CC2)N(C)S(=O)(=O)c2cccc3cnccc23)cc1)S(=O)(=O)c1cccc2ccccc12 (stereo not drawn) , is recorded IC50 strictly lower than 60 µM?
False

Given O=S(=O)(c1cccc2cnccc12)N1CCN(CC=Cc2ccc(Cl)cc2)CC1 , is recorded IC50 strictly lower than 60 µM?
True

Given O=S(=O)(NC(Cc1ccc(OCc2ccccc2)cc1)CN1CCN(c2ccccc2)CC1)c1cccc2cnccc12 (stereo not drawn) , is recorded IC50 strictly lower than 60 µM?
True

Given O=S(=O)(Nc1ccccc1NCC=Cc1ccc(Cl)cc1)c1cccc2cnccc12 , is recorded IC50 strictly lower than 60 µM?
True

----------
Reported IC50 is given for each of the following compounds.
molecular target: Calmodulin-Dependent Phosphodiesterase (Ca^2+ PDE); assay: Calmodulin-Dependent Phosphodiesterase Inhibition (Ca^2+ PDE); settings: [^3 H]-cGMP, 30° C.
Numeric only. Scale: µM

>  <Compound>
Cc1ccc(S(=O)(=O)Nc2ccc(CC(NS(=O)(=O)c3cccc4cnccc34)C(=O)N3CCN(c4ccccc4)CC3)cc2)cc1 (stereo not shown) [Example 15]

>  <Numeric result>
43

$$$$

Item CN(c1ccc(CC(C(=O)N2CCN(c3ccccc3)CC2)N(C)S(=O)(=O)c2cccc3cnccc23)cc1)S(=O)(=O)c1cccc2cnccc12 (stereo not shown) [Example 23] with Calmodulin-Dependent Phosphodiesterase (Ca^2+ PDE) - IC50?
66

----------
target: Calmodulin-Dependent Phosphodiesterase (Ca^2+ PDE); assay: Calmodulin-Dependent Phosphodiesterase Inhibition (Ca^2+ PDE); details: [^3 H]-cGMP, 30° C.
Reported log10 of IC50 is given for each of the following molecules.
All values: log10 IC50 [µM].

Completed entries (count: 5):
>  <Molecule>
O=S(=O)(c1cccc2cnccc12)N(Cc1ccc(Cl)c(Cl)c1)C(Cc1ccc(O)cc1)CN1CCC(O)CC1 (stereo not drawn)

>  <Numeric result>
1.08

$$$$
>  <Molecule>
O=S(=O)(NC(Cc1ccc(OS(=O)(=O)c2cccc3cnccc23)cc1)CN1CCCN(c2ccccc2)CC1)c1cccc2cnccc12 (stereo not drawn)

>  <Numeric result>
1.11

$$$$
>  <Molecule>
CN(C(Cc1ccc(O)cc1)CN1CCCN(c2ccccc2)CC1)S(=O)(=O)c1cccc2cnccc12 (stereo not drawn)

>  <Numeric result>
1.38

$$$$
>  <Molecule>
CN(C(Cc1ccc(NS(C)(=O)=O)cc1)C(=O)N1CCN(c2ccccc2)CC1)S(=O)(=O)c1cccc2cnccc12 (stereo not drawn)

>  <Numeric result>
1.30

$$$$
>  <Molecule>
O=S(=O)(c1cccc2cnccc12)N(CC#Cc1ccc(Cl)cc1)CCNCC#Cc1ccc(Cl)cc1

>  <Numeric result>
0.00

$$$$

I have this molecule here, O=S(=O)(NCCNCC=Cc1ccc(F)cc1)c1cccc2cnccc12 , and I need its recorded log10 of IC50.
1.11

I have this molecule here, O=S(=O)(Nc1ncccc1NCC=Cc1ccc(Cl)cc1)c1cccc2cnccc12 , and I need its recorded log10 of IC50.
1.62

I have this molecule here, O=S(=O)(NCCNCC=Cc1ccc(Cl)cc1)c1cccc2cnccc12 , and I need its recorded log10 of IC50.
0.97

I have this molecule here, O=S(=O)(c1cccc2cnccc12)N1CCN(CC=Cc2ccc(Cl)cc2)c2ccccc21 , and I need its recorded log10 of IC50.
0.00

I have this molecule here, O=C([C@H](Cc1ccc(OS(=O)(=O)c2cccc3cnccc23)cc1)NS(=O)(=O)c1cccc2cnccc12)N1CCN(c2ccccc2)CC1 , and I need its recorded log10 of IC50.
1.00

I have this molecule here, CC(C=Cc1ccc(Cl)cc1Cl)NCCNS(=O)(=O)c1cccc2cnccc12 (stereo not drawn) , and I need its recorded log10 of IC50.
1.28

I have this molecule here, O=S(=O)(NC(Cc1ccc(OS(=O)(=O)c2cccc3cnccc23)cc1)CN1CCN(c2ccc(F)cc2)CC1)c1cccc2cnccc12 (stereo not drawn) , and I need its recorded log10 of IC50.
0.81

I have this molecule here, O=S(=O)(NC(Cc1ccc(OS(=O)(=O)c2cccc3cnccc23)cc1)CN1CCC(OCc2ccc(Cl)c(Cl)c2)CC1)c1cccc2cnccc12 (stereo not drawn) , and I need its recorded log10 of IC50.
1.38

I have this molecule here, O=S(=O)(NCCNCC#Cc1ccc(Cl)cc1)c1cccc2cnccc12 , and I need its recorded log10 of IC50.
0.43

I have this molecule here, CC(C=Cc1cccc(Cl)c1)NCCNS(=O)(=O)c1cccc2cnccc12 (stereo not drawn) , and I need its recorded log10 of IC50.
0.93
